Catalogue of IC50 readings, one per entry.
tested on: ZF4 (fibroblasts) cell line; assay: ATP assay (ATP/LDH multiplex), ATP metabolism; assay type: cell-based, zebrafish (Danio rerio); conditions: Danio rerio, Fibroblast; ZF4, 48 h exposure, nominal, log10; read-out: logIC50 (log10 IC50;nom) ATP (converted)
Expressed in µM, but write only the number.

INSERT INTO assay_data (compound, target_or_system, number) VALUES
  ('COC(=O)Nc1nc2ccc([S+]([O-])c3ccccc3)cc2[nH]1 (stereo not shown)', 'ZF4 (fibroblasts) cell line', 145),
  ('CCC(C)C1OC2(CCC1C)CC1CC(CC=C(C)C(OC3CC(OC)C(OC4CC(OC)C(O)C(C)O4)C(C)O3)C(C)C=CC=C3COC4C(O)C(C)=CC(C(=O)O1)C34O)O2 (stereo not shown)', 'ZF4 (fibroblasts) cell line', 15.5),
  ('CC1(C)C(C=C(Cl)c2ccc(Cl)cc2)C1C(=O)OC(C#N)c1ccc(F)c(Oc2ccccc2)c1 (stereo not shown)', 'ZF4 (fibroblasts) cell line', 316),
  ('CO[C@H]1C[C@H](O[C@H]2[C@H](C)O[C@@H](O[C@@H]3/C(C)=C/C[C@@H]4C[C@@H](C[C@]5(C=C[C@H](C)[C@@H](C6CCCCC6)O5)O4)OC(=O)[C@@H]4C=C(C)[C@@H](O)[C@H]5OC/C(=C\C=C\[C@@H]3C)[C@]54O)C[C@@H]2OC)O[C@@H](C)[C@@H]1O', 'ZF4 (fibroblasts) cell line', 4.37),
  ('COC(=O)Nc1nc2ccc(Sc3ccccc3)cc2[nH]1', 'ZF4 (fibroblasts) cell line', 7.41);

In: Could you share what IC50 was measured for "CCCSc1ccc2nc(NC(=O)OC)[nH]c2c1" , tested on ZF4 (fibroblasts) cell line?
Out: 3.24

In: Follow-up entry: "Cc1cc(-n2c(=O)[nH]c(=O)n(C)c2=O)ccc1Oc1ccc(SC(F)(F)F)cc1"
Out: 43.7

* * *

Catalogue of IC50 readings, one per entry.
tested on: ZF4 (fibroblasts) cell line; assay: MTS assay (MTS/BCA multiplex), NAD(P)H metabolism; format: cell-based, zebrafish (Danio rerio); conditions: Danio rerio, Fibroblast; MTS - ZF4; log10 of IC50; read-out: LogIC50 (converted)

In the examples that follow, each entry is paired with its recorded IC50.
INSERT INTO measurements (compound, target_or_system, result) VALUES
  ('CCC(C)C1OC2(CCC1C)CC1CC(CC=C(C)C(OC3CC(OC)C(OC4CC(OC)C(O)C(C)O4)C(C)O3)C(C)C=CC=C3COC4C(O)C(C)=CC(C(=O)O1)C34O)O2 (stereo not shown)', 'ZF4 (fibroblasts) cell line', '13.6 µM'),
  ('COC(=O)Nc1nc2ccc([S+]([O-])c3ccccc3)cc2[nH]1 (stereo not shown)', 'ZF4 (fibroblasts) cell line', '20.4 µM'),
  ('CC1(C)C(C=C(Cl)c2ccc(Cl)cc2)C1C(=O)OC(C#N)c1ccc(F)c(Oc2ccccc2)c1 (stereo not shown)', 'ZF4 (fibroblasts) cell line', '83.1 µM');

In: I have this compound here, "CCCSc1ccc2nc(NC(=O)OC)[nH]c2c1" , and I need its recorded IC50.
Out: 10.1 µM

In: Follow-up entry: "COC(=O)Nc1nc2ccc(Sc3ccccc3)cc2[nH]1"
Out: 5.84 µM

In: Follow-up entry: "CO[C@H]1C[C@H](O[C@H]2[C@H](C)O[C@@H](O[C@@H]3/C(C)=C/C[C@@H]4C[C@@H](C[C@]5(C=C[C@H](C)[C@@H](C6CCCCC6)O5)O4)OC(=O)[C@@H]4C=C(C)[C@@H](O)[C@H]5OC/C(=C\C=C\[C@@H]3C)[C@]54O)C[C@@H]2OC)O[C@@H](C)[C@@H]1O"
Out: 12.3 µM

In: Follow-up entry: "Cc1cc(-n2c(=O)[nH]c(=O)n(C)c2=O)ccc1Oc1ccc(SC(F)(F)F)cc1"
Out: 175 µM

Sourced from paper PMC7872314
